Values from ChEMBL document CHEMBL4513216

test system: Plasmodium berghei; experiment: Screen against P. berghei liver stage (PbLuc), transformed with Luciferase, at 10uM; format: functional, HepG2; conditions: tested at 10 uM
Out of some 69,000 compounds screened, about 8,600 (12%) showed an effect of 50% or more. The entries come from a sample that favours strong results as a whole.
Friendly reminder: INHIBITION below 20% is 1, at or above is 0.

In: Hello, is INHIBITION of the following molecule strictly smaller than 20%? "Cc1nc2cc(O)nn2c(C)c1CCC(=O)N(C)Cc1ccccc1"
Out: 1

In: INHIBITION strictly < 20% for this molecule? CCc1noc(C(C)N2CCN(CCN3CCCC3=O)CC2)n1 (centres undefined)
Out: 1

In: Is 20% strictly greater than the molecule's reported INHIBITION? molecule: Cc1cn[nH]c1C1CCCCN1C(=O)CCc1c(C)n[nH]c1C (centres undefined)
Out: 0

In: Is INHIBITION of O=C(NCC(=O)N1CCCC1Cc1cccc(F)c1)C1CCCC1 (centres undefined) strictly below 20%?
Out: 1

In: Is INHIBITION of Cc1ccc(O)c(CN2CCCCC2CCN2CCOCC2)c1 (centres undefined) strictly below 20%?
Out: 0

In: Hi there! Is INHIBITION for CC(C)CCC(=O)NCC(=O)N1CCCCCC1c1ccco1 (centres undefined) below 20%, do you know?
Out: 1

In: Just wondering, is INHIBITION of "CC(C)c1nn(C)c(N(C)C)c1CNCc1ccnc(N(C)C)c1" below 20%?
Out: 1

In: Decide: INHIBITION of "CN(C)C(=O)CN1CCOCC2(CCN(CC3CCOCC3)CC2)C1" strictly below 20%?
Out: 0

In: Input "O=C(NCc1cccnc1)c1cn(CCc2ccccc2)nn1" ; condition: INHIBITION strictly below 20%. Does it hold?
Out: 1

In: Is 20% strictly greater than the molecule's reported INHIBITION? molecule: CCc1ccc(C2CCCCCN2C(=O)CNC(=O)NC2CC2)o1 (centres undefined)
Out: 0

In: Field: below-cutoff. Rule: recorded INHIBITION strictly less than 20%. Subject: "CC(C)[C@]1(O)CN(C(=O)CNC(N)=O)C[C@H]1C"
Out: 0

In: is_below(INHIBITION, 20%) for CC(NC(=O)COC1CCCC1)c1nc(-c2ccccc2)c[nH]1 (centres undefined) ?
Out: 1

In: Given the entry COc1ccc(C(=O)N2CCCC2c2noc(C(C)C)n2)nn1 (centres undefined) , would its reported INHIBITION be below 20%?
Out: 1

In: Please state whether INHIBITION is below 20% for Cc1ccc(C2CCCCCN2C(=O)Nc2cn[nH]c2)o1 (centres undefined)
Out: 1

In: Determine if CC(C)c1nc2n(n1)CC(NCc1ccncc1)CC2 (centres undefined) shows INHIBITION strictly lower than 20%.
Out: 1

In: Take the molecule CCN1CC(CN(C)Cc2nc(-c3ccc(F)cc3)oc2C)CC1=O (centres undefined) and say whether its INHIBITION is less than 20%.
Out: 0

In: In plain terms, does "COc1ccc(CC(=O)N2CC[C@@H](OC)[C@@H]2Cc2cccnc2)cc1" come in under 20% for INHIBITION?
Out: 0

In: # strict comparison: is reported INHIBITION < 20%? input = "C[C@@H]1C[C@H](C(F)(F)F)n2nc(C3CCN(S(=O)(=O)N(C)C)CC3)cc2N1"
Out: 1

In: Item CCc1ccc(C2CCCN2C(=O)NCC(=O)NCC(C)C)o1 (centres undefined) : INHIBITION beneath 20%, strictly?
Out: 0

In: Confirm or reject: INHIBITION of CNC(=O)C1CN(c2ccnc(C)n2)CCN(C2CCOCC2)C1 (centres undefined) lies strictly below 20%
Out: 0

In: Lab note: confirm whether the reported INHIBITION for this molecule is below 20%, equality not counting. molecule: CCc1nc(C2CCCN(C(=O)c3ccc(O)nc3)C2)no1 (centres undefined)
Out: 0

In: Say whether its INHIBITION is strictly beneath 20%. Entry: "CCc1nnc2n1CCN(Cc1cc(Cl)c3c(c1)OCCCO3)C2"
Out: 0

In: Given "O=C(CSc1ncccn1)N1C[C@@H]2CC[C@H]1CN(Cc1ccncc1)C2" , is recorded INHIBITION strictly lower than 20%?
Out: 0
